Sourced from paper PMC2858585

test_system: Recombinant SPEH1 (Strongylocentrotus purpuratus, UniProt B2MWN2)
method_description: Inhibition of recombinant SPEH1, [3H] t-DPPO as substrate
Format: biochemical
experimental_setup: read-out: Recombinant SPEH1 IC50
pIC50: −log10 of the molar value.
measurement_name: pIC50

CCNC(=O)NC1CCCCC1 [CEU, N-cyclohexyl-N′-ethylurea] on Recombinant SPEH1 (Strongylocentrotus purpuratus, UniProt B2MWN2) gives pIC50 = < 4.30

---

test_system: Recombinant SPEH1 (Strongylocentrotus purpuratus, UniProt B2MWN2)
method_description: Hydrolysis of EETs and EpOMEs analyzed by LC-MS/MS, recombinant SPEH1
Type: biochemical
experimental_setup: natural substrates, adjusted for estimated purity
measurement_name: Specific activity (nmol/min/mg)
Give the number; nmol/min/mg is assumed, so skip it.

Reported Specific activity ( CCCCCC1OC1C/C=C\C/C=C\C/C=C\CCCC(=O)O (stereo not shown) ) = 330

Per the record, CCCCCC=CCC1OC1CCCCCCCC(=O)O (stereo not shown) [9,10-EpOME, 9,10-epoxy-12-octadecenoate] has Specific activity of 4800

Notebook: CCCCC/C=C\C/C=C\CC1OC1C/C=C\CCCC(=O)O (stereo not shown) , Specific activity read as 33

For CCCCC/C=C\C[C@H]1O[C@H]1C/C=C\C/C=C\CCCC(=O)O the molecule record lists Specific activity as 490

---

test_system: Recombinant SPEH1 (Strongylocentrotus purpuratus, UniProt B2MWN2)
method_description: Fluorescent IC50 assay with PHOME as substrate, recombinant SPEH1
Type: biochemical
measurement_name: IC50 (nM)
Entry rule: numbers only, all in nM.

molecule O=C(O)CCCCCCCCCCCNC(=O)NC12CC3CC(CC(C3)C1)C2 [AUDA] , IC50 observed: 160
